System: SW480
Test: TCF/Wnt firefly luciferase reporter signal relative to plate median (fraction of plate median); higher = higher Wnt reporter signal
Conditions: 5 µM; treatment time 24 h; reporter: 7TFP
Measurement label: TCF/Wnt firefly luciferase reporter signal

Take a look at these entries with their results.
Dear colleague, I am looking for the recorded TCF/Wnt firefly luciferase reporter signal of the following molecule: CC(C(=O)O)c1ccc(-c2ccccc2)c(F)c1 (centres undefined) 1.02

Field entry: CC(=O)OCC1=C(C(=O)O)N2C(=O)[C@@H](NC(=O)Cc3cccs3)[C@H]2SC1 1

// repeat for O=C(O)c1cc(=O)c2c(OCC(O)COc3cccc4oc(C(=O)O)cc(=O)c34)cccc2o1 and report 1.01

Further cases:
Given the molecule COc1ccc(-c2cc(=O)c3c(O)c(OC)c(OC)c(OC)c3o2)cc1 , what is its reported TCF/Wnt firefly luciferase reporter signal? 1.01

###

System: HCT116
Assay: cell viability (CellTiter-Glo) relative to plate median (fraction of plate median); higher = more viable cells
Conditions: 5 µM; treatment time 24 h; reporter: TCF4/Wnt
Listed molecules paired with reported cell viability
Form: value (number only, do not type unit).

As a guide, the following entries are already answered.
# lookup: cell viability of O=c1c2ccccc2oc2ccccc12 0.98

Another molecule: CC1CCC2(OC1)OC1CC3C4CCC5C[C@@H](O)CCC5(C)C4=CCC3(C)C1[C@@H]2C (stereo partly drawn) [3beta-HYDROXYISOALLOSPIROST-9(11)-ENE] 0.997

Next record, please: COc1cc2nc(N(C)CCCNC(=O)C3CCCO3)nc(N)c2cc1OC (configuration not stated) 0.973

Repeat for the following molecule: CC(C)NCC(O)c1ccc(O)c(O)c1 (configuration not stated) 1.04

Others:
Returns the measured cell viability for the input molecule. Input: O=C(O)Cc1ccccc1Nc1c(Cl)cccc1Cl 0.938

What would you report for C#CCCCCCCCCCCCc1ccco1 ? 1.03

Now consider CC[C@@H](C)c1cc(=O)c2c(CO)cc3c(c2o1)C(=O)c1c(O)cccc1C3=O and answer again. 1.13

###

System: DLD1
Assay: TCF/Wnt firefly luciferase reporter signal relative to plate median (fraction of plate median); higher = higher Wnt reporter signal
Settings: 5 µM; treatment time 24 h; reporter: 7TFP
Everything with TCF/Wnt firefly luciferase reporter signal lower than 1 is not met; everything else, including exactly 1, is met.

Use the examples below as a reference point.
Reported TCF/Wnt firefly luciferase reporter signal at or above 1? CC1=C(/C=C/C(C)=C/C=C/C(C)=C/C=C/C=C(C)/C=C/C=C(C)/C=C/C(=O)[C@]2(C)C[C@@H](O)CC2(C)C)C(C)(C)C[C@H](O)C1 not met

Now give it for O=C(O)CCCN1C(=O)c2cccc3cccc(c23)C1=O too. not met

Field entry: c1ccc2c(c1)CN1CCCC1=N2 not met

And then C[C@]1(OC(=O)/C=C/c2ccccc2)C[C@@H](O)[C@]2(O)C=CO[C@@H](O[C@@H]3O[C@H](CO)[C@@H](O)[C@H](O)[C@H]3O)[C@@H]21 , what is it? met

Consider next the compound COc1cc(C)c(C(=O)Oc2cc(C)c(C(=O)O)c(O)c2C)c(O)c1C=O in the same way. met

Entry COCCc1ccc(OCC(O)CNC(C)C)cc1 (stereo not given) please met

Moving on to another compound below.
Hi, just wondering whether C=C[C@H]1CN2CC[C@H]1C[C@@H]2[C@@H](O)c1ccnc2ccc(OC)cc12 shows TCF/Wnt firefly luciferase reporter signal of 1 or higher. met

These entries and their values trace back to the supplement of paper PMC6522484.
